target: Hes1 (Rattus norvegicus); construct: Rat-Hes1 (residues 3-281); test: Hes1 dimer fluorescence plate assay (Cy3-Hes1); binding also shown by GST-Hes1 beads-HPLC
Endpoint: pIC50
Hey, just a heads up that pIC50 is the negative log base 10 of the concentration in molar.

Sample COc1cc(O[C@@H]2O[C@H](CO[C@@H]3OC[C@@H](O)[C@H](O)[C@H]3O)[C@@H](O)[C@H](O)[C@H]2O)c2c(=O)cc(-c3ccc(OC)c(OC)c3)oc2c1 [compound 4, lethedioside A] — what was its pIC50?
5.02

###

Target: Hes1 (Rattus norvegicus)
Construct: Rat-Hes1 (residues 3-281)
Sequence (Q04666 3-281): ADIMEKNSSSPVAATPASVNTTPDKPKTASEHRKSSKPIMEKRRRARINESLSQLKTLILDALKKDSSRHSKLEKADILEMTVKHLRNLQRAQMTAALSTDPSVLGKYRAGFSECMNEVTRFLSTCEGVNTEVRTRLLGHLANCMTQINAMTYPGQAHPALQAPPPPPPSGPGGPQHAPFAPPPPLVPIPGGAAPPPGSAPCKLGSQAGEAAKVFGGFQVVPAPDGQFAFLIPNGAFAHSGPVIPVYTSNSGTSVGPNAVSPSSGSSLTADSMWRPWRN
Test: biochemical
Design: Fluorescence plate assay of Hes1 dimer formation, immobilized Hes1 with Cy3-labeled Hes1
Details: Hes1 dimer formation
pIC50: −log10 of the molar value.
Endpoint: pIC50

Below are worked cases with known answers.
Compound: CCCC(=O)/C=C/C1=C(O)C(=O)c2cc(O)c(O)cc2C1=O
pIC50: 5.43
--
Compound: COc1c(O)cc2oc3cc(O)c(CC=C(C)C)c(O)c3c(=O)c2c1CC=C(C)C
pIC50: < 4.19

Lab note: next compound to report on.
Sample COc1cc(O[C@@H]2O[C@H](CO[C@@H]3OC[C@@H](O)[C@H](O)[C@H]3O)[C@@H](O)[C@H](O)[C@H]2O)c2c(=O)cc(-c3ccc(O)cc3)oc2c1 [compound 3, genkwanin 5-O-β-D-xylosyl-β-D-glucoside] — what was its pIC50?
< 4.19
